# CAC values compiled below
Experiment: Small angle X-ray scattering, critical aggregation concentration from fit
Type: physicochemical
Settings: Table 3; fully iodinated peptoids, bundle model fit
Square brackets hold non-standard residues; d marks the D form. Peptide text beside a SMILES is read from it. NBzl(4-I)Gly = O=C(O)CNCc1ccc(I)cc1; Nlys = NCCCCNCC(=O)O
Write the value in mg/mL as a bare number.

A selection of reference data follows.
[
  {
    "compound": "NCCCCNCC(=O)N(CC(=O)N(CCCCN)CC(=O)N(CC(=O)N(CCCCN)CC(=O)N(CC(N)=O)Cc1ccc(I)cc1)Cc1ccc(I)cc1)Cc1ccc(I)cc1 [Compound 5] (H-[Nlys][NBzl(4-I)Gly][Nlys][NBzl(4-I)Gly][Nlys][NBzl(4-I)Gly]-NH2; N-terminus assumed)",
    "metricName": "CAC",
    "val": 2.8
  },
  {
    "compound": "NCCCCNCC(=O)N(CC(=O)N(CCCCN)CC(=O)N(CC(=O)N(CCCCN)CC(=O)N(CC(=O)N(CCCCN)CC(=O)N(CC(=O)N(CCCCN)CC(=O)N(CC(N)=O)Cc1ccc(I)cc1)Cc1ccc(I)cc1)Cc1ccc(I)cc1)Cc1ccc(I)cc1)Cc1ccc(I)cc1 [Compound 23] (H-[Nlys][NBzl(4-I)Gly][Nlys][NBzl(4-I)Gly][Nlys][NBzl(4-I)Gly][Nlys][NBzl(4-I)Gly][Nlys][NBzl(4-I)Gly]-NH2; N-terminus assumed)",
    "metricName": "CAC",
    "val": 0.5
  },
  {
    "compound": "NCCCCNCC(=O)N(CC(=O)N(CCCCN)CC(=O)N(CC(=O)N(CCCCN)CC(=O)N(CC(=O)N(CCCCN)CC(=O)N(CC(N)=O)Cc1ccc(I)cc1)Cc1ccc(I)cc1)Cc1ccc(I)cc1)Cc1ccc(I)cc1 [Compound 14] (H-[Nlys][NBzl(4-I)Gly][Nlys][NBzl(4-I)Gly][Nlys][NBzl(4-I)Gly][Nlys][NBzl(4-I)Gly]-NH2; N-terminus assumed)",
    "metricName": "CAC",
    "val": 1.4
  }
]

With those in mind, consider the next compound.
Q) What does the data say about its CAC? Entry: NCCCCNCC(=O)N(CC(=O)N(CCCCN)CC(=O)N(CC(=O)N(CCCCN)CC(=O)N(CC(=O)N(CCCCN)CC(=O)N(CC(=O)N(CCCCN)CC(=O)N(CC(=O)N(CCCCN)CC(=O)N(CC(N)=O)Cc1ccc(I)cc1)Cc1ccc(I)cc1)Cc1ccc(I)cc1)Cc1ccc(I)cc1)Cc1ccc(I)cc1)Cc1ccc(I)cc1 [Compound 32] (H-[Nlys][NBzl(4-I)Gly][Nlys][NBzl(4-I)Gly][Nlys][NBzl(4-I)Gly][Nlys][NBzl(4-I)Gly][Nlys][NBzl(4-I)Gly][Nlys][NBzl(4-I)Gly]-NH2; N-terminus assumed)
A) 0.4

====

Assay: Small angle X-ray scattering, critical aggregation concentration from fit
Assay type: physicochemical
Conditions: SAXS fit analysis, bundle model
Procedure: SAXS experiments of the 10-mer peptoids were performed on the automated BM29 bioSAXS beamline at the European Synchrotron Radiation Facility (ESRF) in Grenoble, France. The data was obtained using an energy of 12.5 keV and a detector distance of 2.87 m, covering a q range (q=4π sin(θ/2)/λ), where θ is the scattering angle and λ is the X-ray wavelength) of about 0.0047 Å-1 to 0.5 Å-1. The data set was calibrated to an absolute intensity scale using water as a primary standard. […]
Square brackets hold non-standard residues; d marks the D form. Peptide text beside a SMILES is read from it. N(4-Br-benzyl)Gly = O=C(O)CNCc1ccc(Br)cc1; NBzl(4-I)Gly = O=C(O)CNCc1ccc(I)cc1; Nlys = NCCCCNCC(=O)O
critical aggregation concentration (CAC) values for the compounds below.
Answer format: numeric, mg/mL implied, no suffix.

Known critical aggregation concentration (CAC) results, listed for orientation:
[
  {
    "compound": "NCCCCNCC(=O)N(CC(=O)N(CCCCN)CC(=O)N(CC(=O)N(CCCCN)CC(=O)N(CC(=O)N(CCCCN)CC(=O)N(CC(=O)N(CCCCN)CC(=O)N(CC(N)=O)Cc1ccc(Br)cc1)Cc1ccc(Br)cc1)Cc1ccc(Br)cc1)Cc1ccc(Br)cc1)Cc1ccc(Br)cc1 [Compound 22] (H-[Nlys][N(4-Br-benzyl)Gly][Nlys][N(4-Br-benzyl)Gly][Nlys][N(4-Br-benzyl)Gly][Nlys][N(4-Br-benzyl)Gly][Nlys][N(4-Br-benzyl)Gly]-NH2; N-terminus assumed)",
    "outputUnit": "mg/mL",
    "critical aggregation concentration (CAC)": 2.3
  },
  {
    "compound": "NCCCCNCC(=O)N(CC(=O)N(CCCCN)CC(=O)N(CC(=O)N(CCCCN)CC(=O)N(CC(N)=O)Cc1ccc(I)cc1)Cc1ccc(I)cc1)Cc1ccc(I)cc1 [Compound 5] (H-[Nlys][NBzl(4-I)Gly][Nlys][NBzl(4-I)Gly][Nlys][NBzl(4-I)Gly]-NH2; N-terminus assumed)",
    "outputUnit": "mg/mL",
    "critical aggregation concentration (CAC)": 2.8
  },
  {
    "compound": "NCCCCNCC(=O)N(CC(=O)N(CCCCN)CC(=O)N(CC(=O)N(CCCCN)CC(=O)N(CC(=O)N(CCCCN)CC(=O)N(CC(N)=O)Cc1ccc(I)cc1)Cc1ccc(I)cc1)Cc1ccc(I)cc1)Cc1ccc(I)cc1 [Compound 14] (H-[Nlys][NBzl(4-I)Gly][Nlys][NBzl(4-I)Gly][Nlys][NBzl(4-I)Gly][Nlys][NBzl(4-I)Gly]-NH2; N-terminus assumed)",
    "outputUnit": "mg/mL",
    "critical aggregation concentration (CAC)": 1.4
  },
  {
    "compound": "NCCCCNCC(=O)N(CC(=O)N(CCCCN)CC(=O)N(CC(=O)N(CCCCN)CC(=O)N(CC(=O)N(CCCCN)CC(=O)N(CC(=O)N(CCCCN)CC(=O)N(CC(=O)N(CCCCN)CC(=O)N(CC(N)=O)Cc1ccc(I)cc1)Cc1ccc(I)cc1)Cc1ccc(I)cc1)Cc1ccc(I)cc1)Cc1ccc(I)cc1)Cc1ccc(I)cc1 [Compound 32] (H-[Nlys][NBzl(4-I)Gly][Nlys][NBzl(4-I)Gly][Nlys][NBzl(4-I)Gly][Nlys][NBzl(4-I)Gly][Nlys][NBzl(4-I)Gly][Nlys][NBzl(4-I)Gly]-NH2; N-terminus assumed)",
    "outputUnit": "mg/mL",
    "critical aggregation concentration (CAC)": 0.4
  }
]

Next:
Q) Report critical aggregation concentration (CAC) for NCCCCNCC(=O)N(CC(=O)N(CCCCN)CC(=O)N(CC(=O)N(CCCCN)CC(=O)N(CC(=O)N(CCCCN)CC(=O)N(CC(=O)N(CCCCN)CC(=O)N(CC(N)=O)Cc1ccc(I)cc1)Cc1ccc(I)cc1)Cc1ccc(I)cc1)Cc1ccc(I)cc1)Cc1ccc(I)cc1 [Compound 23] (H-[Nlys][NBzl(4-I)Gly][Nlys][NBzl(4-I)Gly][Nlys][NBzl(4-I)Gly][Nlys][NBzl(4-I)Gly][Nlys][NBzl(4-I)Gly]-NH2; N-terminus assumed) please.
A) 0.5

====

Assay: Small angle X-ray scattering, critical aggregation concentration from fit
Format: physicochemical
Conditions: Table 2; 10-mers, SAXS at ESRF, model fit
Square brackets hold non-standard residues; d marks the D form. Peptide text beside a SMILES is read from it. Gly(Nα-4-Cl-benzyl) = O=C(O)CNCc1ccc(Cl)cc1; N(4-Br-benzyl)Gly = O=C(O)CNCc1ccc(Br)cc1; N(4-F-Bzl)Gly = O=C(O)CNCc1ccc(F)cc1; NBzl(4-I)Gly = O=C(O)CNCc1ccc(I)cc1; Nphe = O=C(O)CNCc1ccccc1; Nlys = NCCCCNCC(=O)O
metricName: CAC

[
  {
    "compound": "NCCCCNCC(=O)N(CC(=O)N(CCCCN)CC(=O)N(CC(=O)N(CCCCN)CC(=O)N(CC(=O)N(CCCCN)CC(=O)N(CC(=O)N(CCCCN)CC(=O)N(CC(N)=O)Cc1ccccc1)Cc1ccccc1)Cc1ccccc1)Cc1ccccc1)Cc1ccccc1 [Compound 19] (H-[Nlys][Nphe][Nlys][Nphe][Nlys][Nphe][Nlys][Nphe][Nlys][Nphe]-NH2; N-terminus assumed)",
    "val": ">5 mg/mL"
  },
  {
    "compound": "NCCCCNCC(=O)N(CC(=O)N(CCCCN)CC(=O)N(CC(=O)N(CCCCN)CC(=O)N(CC(=O)N(CCCCN)CC(=O)N(CC(=O)N(CCCCN)CC(=O)N(CC(N)=O)Cc1ccc(I)cc1)Cc1ccc(I)cc1)Cc1ccc(I)cc1)Cc1ccc(I)cc1)Cc1ccc(I)cc1 [Compound 23] (H-[Nlys][NBzl(4-I)Gly][Nlys][NBzl(4-I)Gly][Nlys][NBzl(4-I)Gly][Nlys][NBzl(4-I)Gly][Nlys][NBzl(4-I)Gly]-NH2; N-terminus assumed)",
    "val": "0.4 mg/mL"
  },
  {
    "compound": "NCCCCNCC(=O)N(CC(=O)N(CCCCN)CC(=O)N(CC(=O)N(CCCCN)CC(=O)N(CC(=O)N(CCCCN)CC(=O)N(CC(=O)N(CCCCN)CC(=O)N(CC(N)=O)Cc1ccc(Cl)cc1)Cc1ccc(Cl)cc1)Cc1ccc(Cl)cc1)Cc1ccc(Cl)cc1)Cc1ccc(Cl)cc1 [Compound 21] (H-[Nlys][Gly(Nα-4-Cl-benzyl)][Nlys][Gly(Nα-4-Cl-benzyl)][Nlys][Gly(Nα-4-Cl-benzyl)][Nlys][Gly(Nα-4-Cl-benzyl)][Nlys][Gly(Nα-4-Cl-benzyl)]-NH2; N-terminus assumed)",
    "val": ">5 mg/mL"
  },
  {
    "compound": "NCCCCNCC(=O)N(CC(=O)N(CCCCN)CC(=O)N(CC(=O)N(CCCCN)CC(=O)N(CC(=O)N(CCCCN)CC(=O)N(CC(=O)N(CCCCN)CC(=O)N(CC(N)=O)Cc1ccc(I)cc1)Cc1ccccc1)Cc1ccc(I)cc1)Cc1ccccc1)Cc1ccc(I)cc1 [Compound 27] (H-[Nlys][NBzl(4-I)Gly][Nlys][Nphe][Nlys][NBzl(4-I)Gly][Nlys][Nphe][Nlys][NBzl(4-I)Gly]-NH2)",
    "val": ">5 mg/mL"
  },
  {
    "compound": "NCCCCNCC(=O)N(CC(=O)N(CCCCN)CC(=O)N(CC(=O)N(CCCCN)CC(=O)N(CC(=O)N(CCCCN)CC(=O)N(CC(=O)N(CCCCN)CC(=O)N(CC(N)=O)Cc1ccc(F)cc1)Cc1ccc(F)cc1)Cc1ccc(F)cc1)Cc1ccc(F)cc1)Cc1ccc(F)cc1 [Compound 20] (H-[Nlys][N(4-F-Bzl)Gly][Nlys][N(4-F-Bzl)Gly][Nlys][N(4-F-Bzl)Gly][Nlys][N(4-F-Bzl)Gly][Nlys][N(4-F-Bzl)Gly]-NH2; N-terminus assumed)",
    "val": ">5 mg/mL"
  },
  {
    "compound": "NCCCCNCC(=O)N(CC(=O)N(CCCCN)CC(=O)N(CC(=O)N(CCCCN)CC(=O)N(CC(=O)N(CCCCN)CC(=O)N(CC(=O)N(CCCCN)CC(=O)N(CC(N)=O)Cc1ccc(Cl)cc1)Cc1ccccc1)Cc1ccc(Cl)cc1)Cc1ccccc1)Cc1ccc(Cl)cc1 [Compound 25] (H-[Nlys][Gly(Nα-4-Cl-benzyl)][Nlys][Nphe][Nlys][Gly(Nα-4-Cl-benzyl)][Nlys][Nphe][Nlys][Gly(Nα-4-Cl-benzyl)]-NH2)",
    "val": ">5 mg/mL"
  }
]

Please examine the following record next.
Q) I have this compound here, NCCCCNCC(=O)N(CC(=O)N(CCCCN)CC(=O)N(CC(=O)N(CCCCN)CC(=O)N(CC(=O)N(CCCCN)CC(=O)N(CC(=O)N(CCCCN)CC(=O)N(CC(N)=O)Cc1ccc(Br)cc1)Cc1ccc(Br)cc1)Cc1ccc(Br)cc1)Cc1ccc(Br)cc1)Cc1ccc(Br)cc1 [Compound 22] (H-[Nlys][N(4-Br-benzyl)Gly][Nlys][N(4-Br-benzyl)Gly][Nlys][N(4-Br-benzyl)Gly][Nlys][N(4-Br-benzyl)Gly][Nlys][N(4-Br-benzyl)Gly]-NH2; N-terminus assumed) , and I need its recorded CAC.
A) 2.3 mg/mL
